- System: Amaranthus palmeri (AMAPA)
- experiment_notes: Post-emergence efficacy, Method A
- Assay type: in vivo
- recorded_conditions: Amaranthus palmeri, post-emergence, 312 h; Application Rate 500 g/Ha; evaluated after 13 days; Method A; read-out: Control of weed species after post-emergence application, AMAPA (100=total damage to plant; 0=no damage to plant)
property_label: pest or weed control at 500 g/ha (%)
Write it as a number; the unit % goes unstated.

Identify pest or weed control at 500 g/ha associated with the compound CC(CS(=O)(=O)[O-])[n+]1ccc(-c2ncccn2)cn1 (stereo not drawn) [Compound A181]
90

Let me know recorded pest or weed control at 500 g/ha for Nc1cc(-c2cc[n+](CCS(=O)(=O)[O-])nc2)ncn1 [Compound A164] , thanks.
100

For Nc1nccc(-c2cc[n+](CCS(=O)(=O)[O-])nc2)n1 [Compound A158] , write its pest or weed control at 500 g/ha.
100

Look up and state reported pest or weed control at 500 g/ha for NC(=O)c1ccc(-c2cc[n+](CCCS(=O)(=O)[O-])nc2)nc1 [Compound A183]
10

Answer with reported pest or weed control at 500 g/ha of O=S(=O)([O-])CC[n+]1ccc(-c2ccnc(C(F)(F)F)c2)cn1 [Compound A165]
100

Supply measured pest or weed control at 500 g/ha of O=C(O)CC[n+]1ccc(-c2ncc(Cl)c(=O)[nH]2)cn1 [Compound A161, 2,2,2-trifluoroacetate] in your reply.
30

Give reported pest or weed control at 500 g/ha value for Cc1cc(F)cnc1-c1cc[n+](CCCS(=O)(=O)[O-])nc1 [Compound A196]
30

Return pest or weed control at 500 g/ha (reported value) for this compound: CC(C)(CC(=O)O)[n+]1ccc(-c2ccncn2)cn1 [Compound A189]
100

Look up pest or weed control at 500 g/ha of O=C(O)CC[n+]1ccc(-c2ccnc(C(F)(F)F)c2)cn1 [Compound A166] and report it.
30

Specify measured pest or weed control at 500 g/ha for O=C(O)CC[n+]1ccc(-c2ccc(C(F)(F)F)cn2)cn1 [Compound A200] .
100

Supply reported pest or weed control at 500 g/ha belonging to this compound: O=S(=O)([O-])CCCC[n+]1ccc(-c2ncccn2)cn1 [Compound A215]
100

Read the entry CCOP(=O)(CCC[n+]1ccc(-c2ncccn2)cn1)OCC [Compound A204] and write its reported pest or weed control at 500 g/ha.
10

* * *

- System: Euphorbia heterophylla (EPHHL)
- experiment_notes: Post-emergence efficacy, Method A
- Format: in vivo
- recorded_conditions: Euphorbia heterophylla, post-emergence, 312 h; Application rate 500 g/Ha; evaluated after 13 days; 100=total damage to plant, 0=no damage to plant; read-out: Control of weed species after post-emergence application, EPHHL
Task for the reader: assign each of the following molecules its reported pest or weed control at 500 g/ha.

Answer with the recorded pest or weed control at 500 g/ha for the molecule listed here: "Cc1cnc(-c2cc[n+](CCS(=O)(=O)[O-])nc2)c(C)c1"
20%

Kindly indicate its recorded pest or weed control at 500 g/ha. Item: "O=C([O-])CC[n+]1ccc(-c2ncc(Cl)cn2)cn1"
80%

Supply measured pest or weed control at 500 g/ha of "COc1cc(OC)nc(-c2cc[n+](CCS(=O)(=O)[O-])nc2)n1" in your reply.
70%

Give recorded pest or weed control at 500 g/ha. "O=S(=O)([O-])CCC[n+]1ccc(-c2cncc(Cl)n2)cn1"
90%

// fetch pest or weed control at 500 g/ha given entry "Cc1cc(=O)[nH]c(-c2cc[n+](CCS(=O)(=O)[O-])nc2)n1"
40%

Please report pest or weed control at 500 g/ha for the following molecule: "O=S(=O)([O-])CC[n+]1ccc(-c2ccccn2)cn1"
100%

Fill in reported pest or weed control at 500 g/ha for this entry: "O=C(O)CC[n+]1ccc(-c2cncc(C(F)(F)F)n2)cn1"
50%

Indicate the recorded pest or weed control at 500 g/ha value for this molecule: "O=C([O-])CC[n+]1ccc(-c2cccc(C(F)(F)F)n2)cn1"
60%

Report pest or weed control at 500 g/ha, nothing else, for this molecule: "COC(=O)C[n+]1ccc(-c2ncccn2)cn1"
90%

Entry "Cc1cncc(-c2cc[n+](CCC(=O)O)nc2)n1" needs its pest or weed control at 500 g/ha filled in; supply it.
100%

Tell me pest or weed control at 500 g/ha reported for "COc1cnc(-c2cc[n+](CCCS(=O)(=O)[O-])nc2)cn1"
20%

Identify the reported pest or weed control at 500 g/ha for the following entry. "O=c1cc(-c2cc[n+](CCCS(=O)(=O)[O-])nc2)nc[nH]1"
50%

Identify the reported pest or weed control at 500 g/ha for the following entry. "CC(=O)c1cnc(-c2cc[n+](CCC(=O)[O-])nc2)nc1"
60%

State its pest or weed control at 500 g/ha: "Cc1cc(Cl)cnc1-c1cc[n+](CCCS(=O)(=O)[O-])nc1"
20%

Answer with reported pest or weed control at 500 g/ha of "O=S(=O)([O-])CC[n+]1ccc(-c2ccc(C(F)(F)F)nn2)cn1"
100%

Provide pest or weed control at 500 g/ha value for the following molecule: "CCOP(=O)(O)CC[n+]1ccc(-c2ncccn2)cn1"
100%

Please report pest or weed control at 500 g/ha for the following molecule: "Cc1cc(Cl)cnc1-c1cc[n+](CCS(=O)(=O)[O-])nc1"
50%

// Input: "Cc1cncc(-c2cc[n+](CCS(=O)(=O)[O-])nc2)n1" . Output its pest or weed control at 500 g/ha only.
90%

Return pest or weed control at 500 g/ha for the following molecule: "Cc1cnc(-c2cc[n+](CCS(=O)(=O)[O-])nc2)cn1"
90%

* * *

- Test system: Digitaria sanguinalis (DIGSA)
- experiment_notes: Post-emergence efficacy, Method A
- Type: in vivo
- recorded_conditions: Digitaria sanguinalis, post-emergence, 312 h; Application rate 500 g/Ha; evaluated after 13 days; 100=total damage to plant, 0=no damage to plant; read-out: Control of weed species after post-emergence application, DIGSA
- Procedure: Seeds of a variety of test species were sown in standard soil in pots. […] After 13 days the test was evaluated (100=total damage to plant; 0=no damage to plant). […]
property_label: pest or weed control at 500 g/ha (%)
I only need the number, in %, no unit after it.

Give pest or weed control at 500 g/ha for the following molecule: "O=S(=O)([O-])CC[n+]1ccc(-c2cccc(C(F)(F)F)n2)cn1"
50

Report pest or weed control at 500 g/ha, nothing else, for this molecule: "Cc1cnc(-c2cc[n+](CCC(=O)O)nc2)nc1"
90

Entry "Cc1cnc(-c2cc[n+](CCC(=O)[O-])nc2)nc1C" needs its pest or weed control at 500 g/ha filled in; supply it.
40

* * *

- Tested on: Ipomoea hederacea (IPOHE)
- experiment_notes: Post-emergence efficacy, Method A
- Format: in vivo
- recorded_conditions: Ipomoea hederacea, post-emergence, 312 h, Application rate 500 g/Ha; evaluated after 13 days; 100=total damage to plant, 0=no damage to plant; read-out: Control of weed species after post-emergence application, IPOHE
Answer each item with its documented pest or weed control at 500 g/ha.
Your answer is read as %, so omit the unit and give the number.

In one line, give reported pest or weed control at 500 g/ha of the entry O=S(=O)([O-])CC[n+]1ccc(-c2nccc(C(F)(F)F)n2)cn1 [Compound A23] .
60

Name the recorded pest or weed control at 500 g/ha of the item COc1nccc(-c2cc[n+](CCS(=O)(=O)[O-])nc2)n1 [Compound A60] in your answer.
60

Assign pest or weed control at 500 g/ha to the following record: CN(C)c1ccnc(-c2cc[n+](CCS(=O)(=O)[O-])nc2)n1 [Compound A16]
40

Provide only the value of recorded pest or weed control at 500 g/ha for COc1cc(C)nc(-c2cc[n+](CCC(=O)[O-])nc2)n1 [Compound A105]
0

Determine its reported pest or weed control at 500 g/ha: O=S(=O)([O-])CC[n+]1ccc(-c2ncc(Cl)cn2)cn1 [Compound A17]
30

Assign pest or weed control at 500 g/ha to the following record: CN(C)c1cnc(-c2cc[n+](CCC(=O)[O-])nc2)nc1 [Compound A42]
20

Tell me measured pest or weed control at 500 g/ha for Cc1nc(-c2cc[n+](CCS(=O)(=O)[O-])nc2)ncc1Cl [Compound A99] please.
30

For the molecule CN(C)c1ccnc(-c2cc[n+](CCC(=O)[O-])nc2)n1 [Compound A45] , give its reported pest or weed control at 500 g/ha.
20

Return value of pest or weed control at 500 g/ha for input CNC(=O)c1ccnc(-c2cc[n+](CCC(=O)[O-])nc2)n1 [Compound A59] , no commentary.
80

Tell me measured pest or weed control at 500 g/ha for Cc1n[n+](CCC(=O)O)ccc1-c1ccccn1 [Compound A145] please.
10

Look up and state reported pest or weed control at 500 g/ha for N#Cc1ccnc(-c2cc[n+](CCCS(=O)(=O)[O-])nc2)n1 [Compound A147]
60

For COc1cnc(-c2cc[n+](CCS(=O)(=O)[O-])nc2)nc1 [Compound A14] , write its pest or weed control at 500 g/ha.
40

Output measured pest or weed control at 500 g/ha for this item: O=C(O)CC[n+]1ccc(-c2nccc(=O)[nH]2)cn1 [Compound A127]
10

Please give measured pest or weed control at 500 g/ha of the following entry: O=S(=O)([O-])CC[n+]1ccc(-c2ccc(F)cn2)cn1 [Compound A72]
40

For the molecule O=S(=O)([O-])CC[n+]1ccc(-c2nccc(C3CC3)n2)cn1 [Compound A50] , report pest or weed control at 500 g/ha.
50

Specify pest or weed control at 500 g/ha for O=S(=O)([O-])CC[n+]1ccc(-c2ncccc2F)cn1 [Compound A68] and stop.
50

Look up and report measured pest or weed control at 500 g/ha for this entry: O=S(=O)([O-])CCC[n+]1ccc(-c2cnc(Cl)cn2)cn1 [Compound A79]
0

Note down pest or weed control at 500 g/ha recorded for O=C(O)CC[n+]1ccc(-c2cc(C(F)(F)F)ncn2)cn1 [Compound A119]
50

Give the reported pest or weed control at 500 g/ha for this molecule. COc1ccnc(-c2cc[n+](CCC(=O)[O-])nc2)n1 [Compound A101]
10

Identify measured pest or weed control at 500 g/ha corresponding to CS(=O)(=O)c1cnc(-c2cc[n+](CCC(=O)[O-])nc2)nc1 [Compound A46]
10

State its pest or weed control at 500 g/ha for this molecule: Cc1cnc(-c2cc[n+](CCS(=O)(=O)[O-])nc2)c(F)c1 [Compound A135]
30

Return pest or weed control at 500 g/ha for the following molecule: O=S(=O)([O-])CC[n+]1ccc(-c2ccccn2)cn1 [Compound A64]
20

# return recorded pest or weed control at 500 g/ha for entry CC(CC(=O)O)[n+]1ccc(-c2ncccn2)cn1 (centres unmarked) [Compound A40, 2,2,2-trifluoroacetate]
100

Recall and state the measured pest or weed control at 500 g/ha for COc1ccc(-c2cc[n+](CCCS(=O)(=O)[O-])nc2)nn1 [Compound A115] .
40

Give a short answer stating reported pest or weed control at 500 g/ha for COc1cc(OC)nc(-c2cc[n+](CCC(=O)[O-])nc2)n1 [Compound A76] .
20

Input Cc1nccc(-c2cc[n+](CCC(=O)O)nc2)n1 [Compound A55] , output reported pest or weed control at 500 g/ha.
70
